The reported measurements were obtained from PubChem BioAssay (NCATS).

biological target: Glucocorticoid receptor (Homo sapiens) (UniProt P04150); experiment: qHTS assay for small molecule agonists of glucocorticoid receptor signaling (AID 588532); settings: HeLa MMTV-bla, beta-lactamase ratio, agonist, 18 h; active compounds read high; percent of dexamethasone control, DMSO zero;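 note: 100% = dexamethasone at 0.1 µM and 0% = DMSO only wells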
Sequence (P04150 whole entry, looked up): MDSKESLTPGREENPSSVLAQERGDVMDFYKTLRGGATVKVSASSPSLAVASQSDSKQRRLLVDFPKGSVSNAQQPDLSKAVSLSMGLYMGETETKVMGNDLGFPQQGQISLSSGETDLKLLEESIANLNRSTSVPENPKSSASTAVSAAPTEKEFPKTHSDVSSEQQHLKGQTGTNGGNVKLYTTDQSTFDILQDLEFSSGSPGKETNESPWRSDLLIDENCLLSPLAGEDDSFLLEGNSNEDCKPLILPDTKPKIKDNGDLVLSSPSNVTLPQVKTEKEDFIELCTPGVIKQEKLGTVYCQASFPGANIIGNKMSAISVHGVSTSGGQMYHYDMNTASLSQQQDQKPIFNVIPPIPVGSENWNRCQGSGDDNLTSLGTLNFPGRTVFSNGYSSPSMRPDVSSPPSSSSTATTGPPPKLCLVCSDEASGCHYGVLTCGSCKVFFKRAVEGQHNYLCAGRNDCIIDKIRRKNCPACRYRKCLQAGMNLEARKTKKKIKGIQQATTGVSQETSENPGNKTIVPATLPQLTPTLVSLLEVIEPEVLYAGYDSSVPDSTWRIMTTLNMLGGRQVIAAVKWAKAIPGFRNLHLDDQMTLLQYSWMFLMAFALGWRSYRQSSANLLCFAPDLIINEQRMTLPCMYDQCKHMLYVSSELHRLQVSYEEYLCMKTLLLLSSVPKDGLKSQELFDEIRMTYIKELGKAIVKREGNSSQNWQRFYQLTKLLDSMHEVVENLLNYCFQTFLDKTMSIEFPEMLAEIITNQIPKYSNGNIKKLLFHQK
Results filed as inconclusive are left out.
Give measured activation for each item. Keep answers brief.
One number for each entry, in %.

> print(dat)
                         compound.structure  quantity.kind  scale.unit  readout.value
1  CC1=C(/C=C/C(C)=C/C=C/C(C)=C\C(=O)O)C(C)(C)CCC1     activation           %          -7.34

Could you tell me activation for each of these molecules? They are listed below.
1. NC(=O)c1ccccc1
2. CC(=O)C(C)=O
3. CC[C@@H]1Cc2cc(O)ccc2C2=C1c1ccc(O)cc1C[C@H]2CC

[-7.58, 6.3, -4.83]

Item under review: CCCc1c(OCCCOc2ccc(OCC(=O)O)cc2)ccc(C(C)=O)c1O . Reported activation? -12.7

###

target: Beta-2 adrenergic receptor (Homo sapiens); experiment: qHTS validation assay of beta-arrestin-biased ligands of beta2-adrenergic receptor (AID 485366); conditions: cell-based beta-arrestin recruitment to ADRB2, qHTS; series mostly up to 46.1 µM; note: 0% is about no effect
Active and inactive are the calls of the source. Calls follow the shape of the dose curve; as a rule, active = well fitted curve in the direction sought with a large enough effect; inconclusive = small, poorly fitted or top-dose-only effect, or effect the other way, or another doubt; inactive = no such curve, though single readings can be large or run the other way.
quantity_kind: outcome

Consider the following illustrative entries.
> print(dat)
                         compound.structure                         target.under.test  quantity.kind  readout.value
1  CCCCC[C@H](CC(=O)NO)C(=O)N[C@H](C(=O)N1CCC[C@H]1CO)C(C)C  Beta-2 adrenergic receptor (Homo sapiens)        outcome       inactive
2             C#CCn1c(=O)c2c(ncn2C)n(C)c1=O  Beta-2 adrenergic receptor (Homo sapiens)        outcome       inactive
3          O=c1[nH]c(=O)c2nc3ccccc3nc2[nH]1  Beta-2 adrenergic receptor (Homo sapiens)        outcome       inactive
4          N[C@@H](Cc1c[nH]c2ccccc12)C(=O)O  Beta-2 adrenergic receptor (Homo sapiens)        outcome       inactive
5  C[C@]12C=CC(=O)C=C1CC[C@@H]1C2=CC[C@]2(C)[C@@H](C(=O)CN3CCN(c4cc(N5CCCC5)nc(N5CCCC5)n4)CC3)CC[C@@H]12  Beta-2 adrenergic receptor (Homo sapiens)        outcome       inactive

Hello, I am looking for reported outcome with Beta-2 adrenergic receptor (Homo sapiens) for Cc1nc2c(OCc3ccccc3)cccn2c1CC#N . Could you help? inactive

###

experiment: qHTS for differential inhibitors of proliferation of Plasmodium falciparum line Dd2 (AID 1882); settings: Plasmodium falciparum Dd2 proliferation inhibition; series mostly up to 28.7 µM;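 note: compound exposure of 72 h on infected erythrocytes; plate controls were DMSO vehicle for no effect and 0.29 µM artemisinin for full effect; nearly all actives have a fitted effect of over 65% in size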
Results filed as inconclusive are left out. Calls of active or inactive are those of the source. Calls follow the shape of the dose curve; as a rule, active = well fitted inhibition curve with a large enough effect; inconclusive = small, poorly fitted or top-dose-only effect; inactive = flat fitted curve, though single readings scatter.
Pick one and only one: active, inactive

molecule	assigned_category
NOCC(=O)O	inactive
CN[C@H](CC(=O)O)C(=O)O	inactive
CO/N=C(\C(=O)N[C@@H]1C(=O)N2C(C(=O)O)=C(CSc3nc(=O)c(O)nn3C)CSC12)c1csc(N)n1 (some centres undefined)	inactive

Please indicate how the test categorized CCCCCC[C@@H]([C@@H](C)O)n1cnc2c(N)ncnc21 . inactive

Please indicate how the test categorized CC(=O)O[C@H]1CC2(C)[C@@H](C[C@@H](O)[C@H]3[C@@]4(C)CC[C@@H](O)[C@@H](C)[C@@H]4CC[C@@]32C)C1=C(CCC=C(C)C)C(=O)O (some centres undefined) . inactive

Please indicate how the test categorized C[N+](C)(C)CC=O . inactive

Please indicate how the test categorized NCCCNCCCCNCCCN . inactive

###

assay: HTS Assay for Allosteric Antagonists of the Human D2 Dopamine Receptor: Hit Validation in HTRF (AID 624455); details: Cells stably expressing D1 dopamine receptor, inhibition mode; series mostly up to 46.1 µM;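 note: stable D1 dopamine receptor cell line scored for blocking the D1 response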
Inconclusive results are not listed. Calls of active or inactive are those of the source. Calls come from the whole dose curve; as a rule, active = well fitted inhibition curve with a large enough effect; inconclusive = small, poorly fitted or top-dose-only effect; inactive = no such curve, though single readings can be large or run the other way.
Pick one and only one: YES for active, NO for inactive

Example results:
> print(dat)
                                   molecule  assigned.category
1  CCCCCCCCCCCCCCCCCCOC[C@H](COP(=O)([O-])OCC[N+](C)(C)C)OC                 NO
2  Nc1ncnc2c1ncn2C1CCCO1 (stereo not drawn)                 NO

Please indicate how the test categorized CN1CCN(c2nc3cc(C(F)(F)F)ccc3n3cccc23)CC1 . NO

Please indicate how the test categorized Cn1cc(C(=O)OCC2CCN(CCNS(C)(=O)=O)CC2)c2ccccc21 . NO

Please indicate how the test categorized NC1(C(=O)O)CC1 . NO

Please indicate how the test categorized NCCCNCCCCNCCCN . YES

###

assay: qHTS Assay for Identifying Gametocytocidal Compounds (AID 743244); note: potency is the fitted concentration of half-maximal effect; conditions: P. falciparum 3D7 stage III-V gametocytes, alamarBlue, 72 h
Results filed as inconclusive are left out. The source made the active and inactive calls. Calls come from the whole dose curve; as a rule, active = well fitted curve in the direction sought with a large enough effect; inconclusive = small, poorly fitted or top-dose-only effect, or another doubt; inactive = no such curve, though single readings can be large or run the other way.
Give measured Potency for each item. Keep answers brief.

Could you tell me Potency for each of these molecules? They are listed below.
1. Cc1cccc(C)c1OCC(N)C(C)C (stereo not given)
2. CC[C@@H]1Cc2cc(O)ccc2C2=C1c1ccc(O)cc1C[C@H]2CC
3. CN1Cc2sccc2C(c2ccc(O)c(O)c2)C1 (stereo not given)
4. CCCCCCCCCC(=O)NC(CN1CCOCC1)[C@H](O)c1ccccc1 (stereo not given in full)
5. NCCNS(=O)(=O)c1cccc2c(Cl)cccc12

1: 23.5 µM (active); 2: 3.55 µM (active); 3: 0.891 µM (active); 4: 3.55 µM (active); 5: 3.16 µM (active)

###

biological target: Thyrotropin-releasing hormone receptor (Homo sapiens) (UniProt P34981); test: qHTS for Small Molecule Agonists and Allosteric Enhancers of Human TRH Receptor: Validation Screen for Agonists (AID 493127); conditions: TRH receptor agonist cell assay; at 2 µM; active compounds read high;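 note: intracellular calcium rise by fluo-8 fluorescence before TRH EC20 addition; 0% is about no effect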
Sequence (P34981 whole entry, looked up): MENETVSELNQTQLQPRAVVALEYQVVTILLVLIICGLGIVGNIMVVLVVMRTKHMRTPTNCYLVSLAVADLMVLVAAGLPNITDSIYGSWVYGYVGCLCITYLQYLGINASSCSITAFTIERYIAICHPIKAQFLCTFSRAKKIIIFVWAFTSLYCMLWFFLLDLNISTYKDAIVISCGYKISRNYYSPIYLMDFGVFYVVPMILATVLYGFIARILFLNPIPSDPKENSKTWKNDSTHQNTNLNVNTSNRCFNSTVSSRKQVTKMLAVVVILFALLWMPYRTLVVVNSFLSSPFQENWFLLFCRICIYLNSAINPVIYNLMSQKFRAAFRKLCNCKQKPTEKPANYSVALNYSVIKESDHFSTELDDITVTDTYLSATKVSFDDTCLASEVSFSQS
Give measured activation for each item. Keep answers brief.
Give bare numbers, in %.

Consider the following illustrative entries.
> print(dat)
                                   compound  quantity.kind  scale.unit  readout.value
1           COc1cc(CNC(=O)CCCCCCC(C)C)ccc1O     activation           %          -5.38
2     CCN(c1nc(N)c(C(=O)N=C(N)N)nc1Cl)C(C)C     activation           %           2.31
3    COc1ccc(-c2ccc(N)[n+](CCCC(=O)O)n2)cc1     activation           %              1
4              O=C(O)[C@H]1NCCC[C@H]1C(=O)O     activation           %         -0.188
5  CCCn1c(=O)c2[nH]c(-c3ccc(S(=O)(=O)O)cc3)nc2n(CCC)c1=O     activation           %          0.688

Could you tell me activation for each of these compounds? They are listed below.
1. NC(Cc1cccc(-c2ccccc2CP(=O)(O)O)c1)C(=O)O (configuration not stated)
2. NOCC(=O)O
3. CCCn1c(=O)c2c(ncn2C)n(CCC)c1=O
4. Cn1ccnc1
5. NCC(O)C1CCCCCCC1 (configuration not stated)
6. Cn1c(=O)c2c(nc(/C=C/c3cccc(Cl)c3)n2C)n(C)c1=O

[1.31, 0.25, 0.5, 1.38, 1, -2.88]

Item under review: Cc1nc(N=Nc2cc(S(=O)(=O)O)c3cc([N+](=O)[O-])cc(S(=O)(=O)O)c3c2)c(COP(=O)(O)O)c(C=O)c1O . Reported activation? 0.25

###

experiment: qHTS for Inhibitors of ATXN expression: Validation (AID 588378); conditions: cell-based ATXN2 expression reporter assay, luminescence; series mostly up to 57.1 µM; note: nearly all actives have a fitted effect of over 75% in size
Inconclusive results are not listed. Activity calls are given as the source filed them. Calls follow the shape of the dose curve; as a rule, active = well fitted inhibition curve with a large enough effect; inconclusive = small, poorly fitted or top-dose-only effect; inactive = no such curve, though single readings can be large or run the other way.
Pick one and only one: active, inactive

Example results:
> print(dat)
                                    molecule  assigned.category
 1             C#CCn1c(=O)c2c(ncn2C)n(C)c1=O           inactive
 2            Cc1nc2c(OCc3ccccc3)cccn2c1CC#N           inactive
 3  CC1=C(/C=C/C(C)=C/C=C/C(C)=C\C(=O)O)C(C)(C)CCC1           inactive
 4  Cc1cc(Cn2cnc3c2C[C@@H](C(=O)O)N(C(=O)C(c2ccccc2)c2ccccc2)C3)ccc1N           inactive
 5          CCN(CC)CCOC(=O)c1cc(Cl)c(N)cc1OC           inactive
 6             NC(=O)CNCCC(c1ccccc1)c1ccccc1           inactive
 7        O=C(OCCN1CCOCC1)C1(c2ccccc2)CCCCC1           inactive
 8  CC[n+]1c(/C=C/C=C2/N(C)c3ccccc3C2(C)C)sc2ccccc21             active
 9  COc1ccc2c(c1)CCC1C2CC[C@@]2(C)C1CC[C@@H]2NCCCCCCN1C(=O)C=CC1=O (some centres undefined)           inactive
10  NC(C(=O)N[C@@H]1C(=O)N2C(C(=O)O)=C(Cl)CS[C@H]12)c1ccccc1 (some centres undefined)           inactive

Please indicate how the test categorized N#C/C(=C\c1ccc(O)c(O)c1)C(=O)NCCc1ccccc1 . inactive

Please indicate how the test categorized CN(CC[C@@H](Oc1ccc(C(F)(F)F)cc1)c1ccccc1)CC(=O)O . inactive

Please indicate how the test categorized CC(O)C(O)[C@H]1CNc2nc(N)[nH]c(=O)c2N1 (some centres undefined) . inactive

Please indicate how the test categorized COc1cc(C(O)C(=O)O)ccc1O (centres undefined) . inactive

Please indicate how the test categorized O=C(O)C1=CCCNC1 . inactive

Please indicate how the test categorized Nc1nc2ccc(Cl)cc2c2nc(-c3ccco3)nn12 . inactive

Please indicate how the test categorized NC(=O)c1ccccc1 . inactive

Please indicate how the test categorized COc1ccc2c(c1)c(CC(=O)O)c(C)n2Cc1ccc(Cl)cc1 . inactive

Please indicate how the test categorized CCCn1c(=O)c(C)cn2nc(N)nc12 . inactive
